- Assay target: T1, human CD79b protein on DoHH2 and WSU-DLCL2 cells (human, UniProt P40259 29-229)
- T1 sequence (looked up): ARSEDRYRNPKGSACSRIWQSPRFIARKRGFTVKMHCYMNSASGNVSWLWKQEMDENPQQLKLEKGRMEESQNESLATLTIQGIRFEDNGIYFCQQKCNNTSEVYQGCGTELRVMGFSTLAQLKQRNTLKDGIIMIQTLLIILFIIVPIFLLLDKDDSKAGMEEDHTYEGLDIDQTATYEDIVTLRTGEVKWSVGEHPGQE
- Test method notes: cell-based or functional assay
The label is 1 for IC50 of in vitro proliferation inhibition (MTT, 72 h), WSU-DLCL2 cells below 50 ng/mL and -1 for IC50 of in vitro proliferation inhibition (MTT, 72 h), WSU-DLCL2 cells equal to or exceeding 50 ng/mL.

These recorded examples may help you get a feel for the data.
Binder	Category label
ADC-6 (hAb015-10-cys-D, with a DAR value of about 4) (antibody, human IgG1, kappa, V domains shown, compound D (exatecan derivative linker-drug, Topo I inhibitor) coupled to cysteines after TCEP reduction; positions not given; mean n=3.46 per antibody (RP-HPLC)) VH: EVQLVQSGAEVKKPGSSVKVSCKASGSSFSSYGINWVKQAPGQGLEWIGEIFPRSGNTYYNEKFEGRATLTADKSTSTAYMELRSLRSEDTAVYYCAKGDLGDFDYWGQGTTVTVSS VL: DFVMTQTPLSLPVTPGEPASISCRSSQSIVHSDGNTYFEWYLQKPGQSPKLLIYKVSNRFSGVPDRFSGSGSGTDFTLKISRVEAEDVGVYYCFQGSHVPWTFGGGTKVEIKR	-1
ADC-8 (SN8-cys-MC-PAB-MMAE, with a DAR value of about 4) (antibody, human IgG1, kappa, V domains shown, MC-VC-PAB-MMAE coupled to cysteines after TCEP reduction; positions not given; mean n=3.59 per antibody (CE-SDS)) VH: EVQLVESGGGLVQPGGSLRLSCAASGYTFSSYWIEWVRQAPGKGLEWIGEILPGGGDTNYNEIFKGRATFSADTSKNTAYLQMNSLRAEDTAVYYCTRRVPIRLDYWGQGTLVTVSS VL: DIQLTQSPSSLSASVGDRVTITCKASQSVDYEGDSFLNWYQQKPGKAPKLLIYAASNLESGVPSRFSGSGSGTDFTLTISSLQPEDFATYYCQQSNEDPLTFGQGTKVEIKR	-1
ADC-3 (hAb015-10-cys-MC-vc-PAB-MMAE) (antibody, human IgG1, kappa, V domains shown, MC-vc-PAB-MMAE coupled to cysteines after TCEP reduction; positions not given; mean n=3.09 per antibody (CE-SDS)) VH: EVQLVQSGAEVKKPGSSVKVSCKASGSSFSSYGINWVKQAPGQGLEWIGEIFPRSGNTYYNEKFEGRATLTADKSTSTAYMELRSLRSEDTAVYYCAKGDLGDFDYWGQGTTVTVSS VL: DFVMTQTPLSLPVTPGEPASISCRSSQSIVHSDGNTYFEWYLQKPGQSPKLLIYKVSNRFSGVPDRFSGSGSGTDFTLKISRVEAEDVGVYYCFQGSHVPWTFGGGTKVEIKR	1

I wonder whether ADC-7 (hAb015-10-cys-D, with a DAR value of about 6) (antibody, human IgG1, kappa, V domains shown, compound D (exatecan derivative linker-drug, Topo I inhibitor) coupled to cysteines after TCEP reduction; positions not given; mean n=5.84 per antibody (RP-HPLC)) VH: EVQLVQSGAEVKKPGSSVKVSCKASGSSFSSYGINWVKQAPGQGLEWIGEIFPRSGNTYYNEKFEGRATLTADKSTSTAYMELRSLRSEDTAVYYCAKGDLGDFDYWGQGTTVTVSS VL: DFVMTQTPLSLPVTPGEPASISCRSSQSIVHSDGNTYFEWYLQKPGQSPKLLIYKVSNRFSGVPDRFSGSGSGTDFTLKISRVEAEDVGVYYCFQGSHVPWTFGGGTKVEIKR has IC50 of in vitro proliferation inhibition (MTT, 72 h), WSU-DLCL2 cells below 50 ng/mL. Can you tell?
-1

I wonder whether ADC-5 (HAB015-10-cys-D, with a DAR value of about 2) (antibody, human IgG1, kappa, V domains shown, compound D (exatecan derivative linker-drug, Topo I inhibitor) coupled to cysteines after TCEP reduction; positions not given; mean n=1.81 per antibody (RP-HPLC), Antibody-drug conjugate of hAb015-10 with compound D) VH: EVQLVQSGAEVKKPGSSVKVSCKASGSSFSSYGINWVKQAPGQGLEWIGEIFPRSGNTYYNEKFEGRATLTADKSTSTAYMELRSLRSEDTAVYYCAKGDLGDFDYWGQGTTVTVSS VL: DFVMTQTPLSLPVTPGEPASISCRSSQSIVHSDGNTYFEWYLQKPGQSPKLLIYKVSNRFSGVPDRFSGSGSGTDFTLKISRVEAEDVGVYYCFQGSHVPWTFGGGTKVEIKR has IC50 of in vitro proliferation inhibition (MTT, 72 h), WSU-DLCL2 cells below 50 ng/mL. Can you tell?
-1
